- setup.conditions: human, serum
Lab note: compare Hepatotoxicity (moderate) against 2. Equal or greater, write Y. Smaller, write N.

Worked set:
Does the compound C[C@]12CCC(=O)C=C1CC[C@@H]1[C@@H]2C(=O)C[C@@]2(C)[C@H]1CC[C@]2(O)C(=O)CO [CORTISONE] have recorded Hepatotoxicity (moderate) that is 2 or more?
N

Follow-up item: CCC[C@H](N[C@@H](C)C(=O)N1[C@H](C(=O)O)C[C@@H]2CCCC[C@@H]21)C(=O)OCC [PERINDOPRIL]
N

Further, for CN(Cc1cnc2nc(N)nc(N)c2n1)c1ccc(C(=O)N[C@@H](CCC(=O)O)C(=O)O)cc1 [METHOTREXATE] ?
Y

Same read-out for Nc1ccn([C@@H]2CS[C@H](CO)O2)c(=O)n1 [LAMIVUDINE] ?
Y

Next: O=C(Cn1ccnc1[N+](=O)[O-])NCc1ccccc1 [BENZNIDAZOLE]
N

Let us now turn to CCc1cc(C(N)=S)ccn1 [ETHIONAMIDE]
Y

Could you now consider this next compound?
Decide: is the reported value of Hepatotoxicity (moderate) for C[C@H]([C@](O)(Cn1cncn1)c1ccc(F)cc1F)S(C)(=O)=O [GENACONAZOLE] equal to or greater than 2?
N

----------
Hepatotoxicity (severe hepatitis) by entry:
- setup.conditions: human
Please give the numeric answer without any surrounding text.

See these solved cases before continuing.
So what does the record say about Hepatotoxicity (severe hepatitis) for Cc1onc(-c2c(F)cccc2Cl)c1C(=O)N[C@@H]1C(=O)N2[C@@H]1SC(C)(C)[C@@H]2C(=O)O [FLOXACILLIN] ?
2

Same lookup for C[S+](CC[C@H](N)C(=O)[O-])C[C@H]1O[C@@H](n2cnc3c(N)ncnc32)[C@H](O)[C@@H]1O (some centres not stated) [ADEMETIONINE] , please.
0

Let us now turn to CCC(C)n1ncn(-c2ccc(N3CCN(c4ccc(OC[C@H]5CO[C@](Cn6cncn6)(c6ccc(F)cc6F)O5)cc4)CC3)cc2)c1=O (some centres not stated) [SAPERCONAZOLE]
0

Shifting focus to the molecule that follows.
Fill in the blank: the reported Hepatotoxicity (severe hepatitis) of CN(C)[C@@H]1C(O)=C(C(N)=O)C(=O)[C@@]2(O)C(O)=C3C(=O)c4c(O)ccc(Cl)c4[C@@H](O)[C@H]3C[C@@H]12 [DEMECLOCYCLINE] is ____.
2

----------
- setup.conditions: human
Item-by-item account of Hepatotoxicity (steatosis)

These solved cases illustrate the format of a correct answer.
Look up Hepatotoxicity (steatosis): `COC(=O)[C@H](c1ccccc1Cl)N1CCc2sccc2C1`
0

Try the molecule `COc1ccc(NS(=O)(=O)c2ccc(N)cc2)nn1`
0

Also `COc1cc(C)c(/C=C/C(C)=C/C=C/C(C)=C/C(=O)O)c(C)c1C` , if possible.
0

And the next one, CCCCOCC(CN1C(=O)N(CC(COCCCC)OC(N)=O)C(=O)C(CC)(c2ccccc2)C1=O)OC(N)=O (stereo not drawn) [DIFEBARBAMATE] ?
1

Moving on to the next molecule: CN(Cc1cnc2nc(N)nc(N)c2n1)c1ccc(C(=O)N[C@@H](CCC(=O)O)C(=O)O)cc1 [METHOTREXATE]
16

Continuing:
Which Hepatotoxicity (steatosis) value belongs to `C[C@H]1COc2c(C3(N)CC3)c(F)cc3c(=O)c(C(=O)O)cn1c23` ?
0

Next up: `C[C@@H]1C[C@H]2[C@@H]3CCC4=CC(=O)C=C[C@]4(C)[C@@]3(F)[C@@H](O)C[C@]2(C)[C@@]1(O)C(=O)CO`
0

For `CC(=O)CCC1C(=O)N(c2ccccc2)N(c2ccccc2)C1=O` then?
0

----------
- assay.procedure: Highest frequency of moderate liver toxicity observed during clinical trials, expressed as a percentage. [column '% BIOL' in source]
- setup.conditions: human
readout.name: Hepatotoxicity (moderate) (%)
The reply should be a number in %, with the unit left off.

Worked set:
Endpoint output: Hepatotoxicity (moderate) of CC(c1cc2ccccc2s1)N(O)C(N)=O (stereo not given) . Value?
16.7

`[Li]` ?
0

Also need COCC(=O)Nc1c(I)c(C(=O)NCC(O)CO)c(I)c(C(=O)N(C)CC(O)CO)c1I (stereo not given) [IOPROMIDE] , thanks.
0

Try O=[N+]([O-])O[C@H]1CO[C@H]2[C@@H]1OC[C@H]2O[N+](=O)[O-] [ISOSORBIDE DINITRATE] next.
0

Another molecule to look at: NS(=O)(=O)c1cc2c(cc1Cl)NCNS2(=O)=O [HYDROCHLOROTHIAZIDE]
2.4

Also, `Cc1ccc(O)c([C@H](CCN(C(C)C)C(C)C)c2ccccc2)c1` please.
0

How about `ClC=C(Cl)Cl` ?
0

Param item: CC(=O)Nc1ccc(OCC(O)CNC(C)C)cc1 (stereo not given)
0

---
Quick check: Hepatotoxicity (moderate) of `O=c1[nH]c2ccccc2n1CCCN1CCC(n2c(=O)[nH]c3cc(Cl)ccc32)CC1` ?
0

Next entry: `c1ccc2c(CCC3CCNCC3)c[nH]c2c1`
0

----------
Recorded Hepatotoxicity (moderate), one value per entry.
- assay.procedure: Highest frequency of moderate liver toxicity observed during clinical trials, expressed as a percentage. [column '% BIOL' in source]
- setup.conditions: human
A number alone suffices; assume %.

Using the record for Cc1onc(-c2c(Cl)cccc2Cl)c1C(=O)N[C@@H]1C(=O)N2[C@@H]1SC(C)(C)[C@@H]2C(=O)O [DICLOXACILLIN] , report its Hepatotoxicity (moderate).
0

---
Fill blank: measured Hepatotoxicity (moderate) of the compound O=C(O)c1cccnc1Nc1cccc(C(F)(F)F)c1 [NIFLUMIC ACID] is ____.
0

Then CC(C)NNC(=O)COc1ccc(Cl)cc1 [IPROCLOZIDE] ?
0

One more compound: CC(=O)N(O)CCCCCNC(=O)CCC(=O)N(O)CCCCCNC(=O)CCC(=O)N(O)CCCCCN [DEFEROXAMINE]
28

# repeat for C=CC[C@@H]1/C=C(\C)C[C@H](C)C[C@H](OC)[C@H]2O[C@@](O)(C(=O)C(=O)N3CCCC[C@H]3C(=O)O[C@H](/C(C)=C/[C@@H]3CC[C@@H](O)[C@H](OC)C3)[C@H](C)[C@@H](O)CC1=O)[C@H](C)C[C@@H]2OC [TACROLIMUS ANHYDROUS]
37

Another: C[C@]1(O)CC[C@H]2[C@@H]3CCC4=CC(=O)CC[C@]4(C)[C@@]3(F)[C@@H](O)C[C@@]21C [FLUOXYMESTERONE]
7.1

Please answer likewise for CC1CCc2cc(F)cc3c(=O)c(C(=O)O)cn1c23 (configuration not stated) [FLUMEQUINE]
0

----------
- assay.procedure: Highest frequency of moderate liver toxicity observed during clinical trials, expressed as a percentage. [column '% BIOL' in source]
- setup.conditions: human, Liver
readout.name: Hepatotoxicity (moderate) (%)
Report only the number, with the unit % understood.

As a guide, the following entries are already answered.
# query: Hepatotoxicity (moderate) of entry `Cc1ccc(C)c(OCCCC(C)(C)C(=O)O)c1`
10

Another compound to look at: `O=C1CN=C(c2ccccc2Cl)c2cc([N+](=O)[O-])ccc2N1`
0

For `Nc1ncn([C@@H]2O[C@H](CO)[C@@H](O)[C@@H]2O)c(=O)n1` then?
46.4

Repeat with CCOC(=O)c1cncn1[C@H](C)c1ccccc1 [ETOMIDATE]
5

`COc1cc(Cc2cnc(N)nc2N)cc(OC)c1OC.Cc1cc(NS(=O)(=O)c2ccc(N)cc2)no1` , same question.
53.8

Queued: `Cc1cccc(Nc2ccccc2C(=O)O)c1C`
0

Would you kindly repeat that for `OCCOCCN1CCN(C2=Nc3ccccc3Sc3ccccc32)CC1` ?
14.8

Would you mind doing CCOC(=O)C1=C(C)NC(C)=C(C(=O)OC)C1c1cccc(Cl)c1Cl (centres undefined) as well?
20

Now take the following compound into account.
For the compound shown here, `CCN1CCN(C(=O)N[C@@H](C(=O)N[C@@H]2C(=O)N3C(C(=O)O)=C(CSc4nnnn4C)CS[C@H]23)c2ccc(O)cc2)C(=O)C1=O` , give the reported Hepatotoxicity (moderate).
20

----------
// values below are reported Hepatotoxicity (acute)
- setup.conditions: human, serum

What value of Hepatotoxicity (acute) has been recorded for this entry: CC(C)[N+](C)(CCC(C(N)=O)(c1ccccc1)c1ccccc1)C(C)C [ISOPROPAMIDE]
1

Try this molecule next: `C[C@](N)(Cc1ccc(O)c(O)c1)C(=O)O`
24

Also, `COc1cc(NS(C)(=O)=O)ccc1Nc1c2ccccc2nc2ccccc12` please.
2

Field entry: `CC(=O)N(O)CCCCCNC(=O)CCC(=O)N(O)CCCCCNC(=O)CCC(=O)N(O)CCCCCN`
1

Repeat with `O=C(O)[C@@H](S)[C@@H](S)C(=O)O`
0

Quick one: CN(C)C(=O)OC1N=C(c2ccccc2)c2cc(Cl)ccc2N(C)C1=O (stereo not drawn)
1

Same again, this time with `Cc1ncc(-c2csc(N=C(N)N)n2)[nH]1`
1

Would you kindly repeat that for `Nc1ncnc2c1ncn2CCOCP(=O)(O)O` ?
1

What do you have for CCc1ccc(CCOc2ccc(CC3SC(=O)NC3=O)cc2)nc1 (stereo not drawn) ?
5

Similarly, `C[C@@H]1C[C@H]2[C@@H]3CCC4=CC(=O)C=C[C@]4(C)[C@@]3(F)[C@@H](O)C[C@]2(C)[C@@]1(O)C(=O)CO` ?
0

Entry source: ChEMBL document CHEMBL3137667
